# targetOrSystem: UniProt:P15309
# Sequence (P15309 33-386): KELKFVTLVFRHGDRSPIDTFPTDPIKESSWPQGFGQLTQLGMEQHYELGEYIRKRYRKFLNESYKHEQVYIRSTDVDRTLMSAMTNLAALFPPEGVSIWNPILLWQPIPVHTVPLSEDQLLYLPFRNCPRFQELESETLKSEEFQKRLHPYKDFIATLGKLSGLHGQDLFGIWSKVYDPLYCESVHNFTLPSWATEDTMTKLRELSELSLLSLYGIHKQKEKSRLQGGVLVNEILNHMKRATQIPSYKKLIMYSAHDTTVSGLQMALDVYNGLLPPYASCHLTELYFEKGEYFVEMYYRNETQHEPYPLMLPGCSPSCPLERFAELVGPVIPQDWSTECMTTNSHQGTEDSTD
Hi there, I'd appreciate the recorded IC50 for every entry that follows.
One number for each entry, in µM.

Below: 8 compounds and their reported IC50.
Cc1ccc(C(c2ccccc2)P(=O)(O)O)cc1 (centres unmarked)    152
Cc1cccc(C(Cc2ccc(Cl)cc2)P(=O)(O)O)c1 (centres unmarked)    81.9
O=[N+]([O-])c1cccc(C(c2ccccc2)P(=O)(O)O)c1 (centres unmarked)    17
O=P(O)(O)C(c1ccccc1)c1ccc(Cl)cc1 (centres unmarked)    142
O=P(O)(O)C(Cc1ccc(Cl)cc1)c1cccc2ccccc12 (centres unmarked)    56.9
O=P(O)(O)C(Cc1ccc(F)cc1)c1cccc(C(F)(F)F)c1 (centres unmarked)    30.6
O=P(O)(O)C(c1ccccc1)C1CCCCCC1 (centres unmarked)    23.5
O=P(O)(O)C(c1ccccc1)c1ccc(Br)cc1 (centres unmarked)    102

Hey, can you go through the list below and give me IC50 for every item?
1. Cc1ccc(C)c(C(c2ccccc2)P(=O)(O)O)c1 (centres unmarked)
2. O=P(O)(O)C(Cc1ccc(-c2ccccc2)cc1)c1ccccc1 (centres unmarked)

Outgoing:
[36.5, 15.7]

###

# targetOrSystem: human prostatic tyrosyl phosphatase (Homo sapiens, UniProt P15309)
property: IC50 (µM)
Give bare numbers, in µM.

Below: 3 compounds and their reported IC50.
O=P(O)(O)C(c1ccc(-c2ccccc2)cc1)C1CCCCC1 (centres unmarked)    37
O=P(O)(O)C(c1ccccc1)c1ccccc1C(F)(F)F (centres unmarked)    8.9
O=P(O)(O)C(CCCCc1ccccc1)c1ccccc1 (centres unmarked)    17.4

Hey, can you go through the list below and give me IC50 for every item?
1. O=P(O)(O)C(Cc1cccc(C(F)(F)F)c1)c1cccc(C(F)(F)F)c1 (centres unmarked)
2. O=P(O)(O)C(c1ccccc1)C1CCCCC1 (centres unmarked)

Outgoing:
1. 9
2. 6.9

###

# targetOrSystem: Human osteoclastic acid phosphatase (OAP) (Homo sapiens)
# Construct: purified from hairy cell leukemia spleen; from tissue; host or cells: human hairy cell leukemia spleen
# Sequence (P13686 22-325): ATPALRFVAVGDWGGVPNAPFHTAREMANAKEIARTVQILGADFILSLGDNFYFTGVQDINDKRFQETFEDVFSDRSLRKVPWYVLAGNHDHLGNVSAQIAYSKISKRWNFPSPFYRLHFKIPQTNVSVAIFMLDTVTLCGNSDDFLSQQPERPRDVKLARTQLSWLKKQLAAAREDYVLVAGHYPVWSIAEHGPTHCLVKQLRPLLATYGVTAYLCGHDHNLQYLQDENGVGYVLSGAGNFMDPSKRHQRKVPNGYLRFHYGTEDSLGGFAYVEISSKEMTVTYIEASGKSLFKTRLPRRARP
# assayNotes: Osteoclastic Acid Phosphatase (OAP) inhibition
# Format: biochemical
# testContext: 100 uM; pH 5.0, room temperature, 20 minutes; read-out: OAPase % Inh@100 uM
Hi there, I'd appreciate the recorded inhibition at 100 µM for every entry that follows.

O=P(O)(O)C(Cc1ccccc1)c1ccc2ccccc2c1 (centres unmarked) [Cmpd 40]    19%
O=P(O)(O)C(c1ccccc1)c1ccc(Br)cc1 (centres unmarked) [Cmpd 26]    20%

Hey, can you go through the list below and give me inhibition at 100 µM for every item?
1. Cc1ccc(C(c2ccccc2)P(=O)(O)O)cc1 (centres unmarked) [Cmpd 22]
2. Cc1ccc(CC(c2cccc3ccccc23)P(=O)(O)O)cc1 (centres unmarked) [Cmpd 46]

Outgoing:
1. 22%
2. 75%

Hey, can you go through the list below and give me inhibition at 100 µM for every item?
1. O=P(O)(O)C(c1ccc(-c2ccccc2)cc1)C1CCCCC1 (centres unmarked) [Cmpd 6]
2. O=[N+]([O-])c1cccc(C(c2ccccc2)P(=O)(O)O)c1 (centres unmarked) [Cmpd 17]
3. O=P(O)(O)C(c1ccccc1)c1cccc(Cl)c1 (centres unmarked) [Cmpd 15]
4. Cc1ccccc1C(C1CCCCC1)P(=O)(O)O (centres unmarked) [Cmpd 8]
5. O=P(O)(O)C(Cc1ccccc1)c1ccccc1 (centres unmarked) [Cmpd 34]

Outgoing:
40%
89%
31%
16%
15%

Hey, can you go through the list below and give me inhibition at 100 µM for every item?
1. Cc1cccc(C(Cc2ccccc2)P(=O)(O)O)c1 (centres unmarked) [Cmpd 29]
2. O=P(O)(O)C(Cc1ccc(Cl)cc1)c1ccccc1 (centres unmarked) [Cmpd 33]

Outgoing:
15%
30%

###

Hi there, I'd appreciate the recorded log10(IC50) for every entry that follows.
# targetOrSystem: Human osteoclastic acid phosphatase (OAP) (Homo sapiens, UniProt P13686)
# Construct: purified from hairy cell leukemia spleen; from tissue; host or cells: human hairy cell leukemia spleen
# assayNotes: Osteoclastic Acid Phosphatase (OAP) inhibition
# Format: biochemical
# testContext: pH 5.0, room temperature, 20 minutes; read-out: OAPase IC50
Give log10 of IC50, with IC50 taken in µM.

O=P(O)(O)C(c1ccc(-c2ccccc2)cc1)c1ccc(-c2ccccc2)cc1    1.23
O=P(O)(O)C(c1ccccc1)c1ccc(C(F)(F)F)cc1 (stereo not shown)    2.00

Hey, can you go through the list below and give me log10(IC50) for every item?
1. O=P(O)(O)C(Cc1ccc(-c2ccccc2)cc1)c1cccc2ccccc12 (stereo not shown)
2. O=P(O)(O)C(CCCCc1ccccc1)c1ccccc1 (stereo not shown)
3. O=P(O)(O)C(Cc1ccccc1)c1cccc2ccccc12 (stereo not shown)
4. O=P(O)(O)C(Cc1ccc(-c2ccccc2)cc1)c1ccccc1 (stereo not shown)
5. O=P(O)(O)C(Cc1cccc(C(F)(F)F)c1)c1cccc(C(F)(F)F)c1 (stereo not shown)

Outgoing:
1: 0.80; 2: 2.00; 3: 1.32; 4: 1.46; 5: 2.00

###

Hi there, I'd appreciate the recorded inhibition at 100 µM for every entry that follows.
# targetOrSystem: Human osteoclastic acid phosphatase (OAP) (Homo sapiens, UniProt P13686)
# Construct: purified from hairy cell leukemia spleen; from tissue; host or cells: human hairy cell leukemia spleen
# Sequence (P13686 22-325): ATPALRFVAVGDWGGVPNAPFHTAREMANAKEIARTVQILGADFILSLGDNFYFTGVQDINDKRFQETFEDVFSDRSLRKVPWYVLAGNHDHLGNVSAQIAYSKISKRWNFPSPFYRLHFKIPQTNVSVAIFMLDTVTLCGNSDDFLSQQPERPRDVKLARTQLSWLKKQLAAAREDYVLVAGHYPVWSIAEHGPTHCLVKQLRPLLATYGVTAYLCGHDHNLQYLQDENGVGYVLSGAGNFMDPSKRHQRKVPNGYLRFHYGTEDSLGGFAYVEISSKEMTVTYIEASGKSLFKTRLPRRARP
# assayNotes: Osteoclastic Acid Phosphatase (OAP) inhibition
# Type: biochemical
# testContext: 100 uM; pH 5.0, room temperature, 20 minutes; read-out: OAPase % Inh@100 uM
Answers are plain numbers, in %.

O=P(O)(O)C(Cc1ccc(F)cc1)c1cccc(C(F)(F)F)c1 (centres unmarked)    25
O=P(O)(O)C(Cc1ccc(C(F)(F)F)cc1)c1cccc(C(F)(F)F)c1 (centres unmarked)    10
O=P(O)(O)C(c1ccccc1)c1ccccc1F (centres unmarked)    12

Hey, can you go through the list below and give me inhibition at 100 µM for every item?
1. O=P(O)(O)C(c1ccccc1)c1ccccc1Cl (centres unmarked)
2. O=P(O)(O)C(Cc1ccc(-c2ccccc2)cc1)c1ccccc1 (centres unmarked)

Outgoing:
[12, 94]

###

Hi there, I'd appreciate the recorded activity at 0.01 µM for every entry that follows.
# System: osteoblast-line cells (mouse MC3T3-E 1 and human TE-85)
# assayNotes: Osteoblast cell proliferation (3H-thymidine incorporation)
# Format: cell-based
# testContext: MC3T3-E1, control is 100%, cell line (MC3T3-E 1 or TE-85) not stated per value, read-out: Osteoblast Prolif (% XControl@ 0.01 uM)
Give bare numbers, in %.

Below: 3 molecules and their reported activity at 0.01 µM.
O=P(O)(O)C(Cc1ccccc1)c1ccccc1 (stereo not shown)    156
O=P(O)(O)C(CCCCc1ccccc1)c1ccccc1 (stereo not shown)    124
Cc1cccc(C(Cc2ccc(Cl)cc2)P(=O)(O)O)c1 (stereo not shown)    97

Hey, can you go through the list below and give me activity at 0.01 µM for every item?
1. O=P(O)(O)C(c1ccccc1)c1ccccc1F (stereo not shown)
2. Cc1ccc(C(c2ccccc2)P(=O)(O)O)cc1 (stereo not shown)
3. Cc1cccc(C(Cc2ccccc2)P(=O)(O)O)c1 (stereo not shown)
4. O=P(O)(O)C(Cc1ccc(Cl)cc1)c1ccccc1 (stereo not shown)

Outgoing:
[124, 116, 99, 104]
